assay: small-molecule binders of probe aNOTCH3, primary screen, biochemical, small-molecule microarray, 635/667 nm fluorescence (AID 1120); details: higher = more signal;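 further: probe is a biotin-tagged antibody raised against NOTCH3 rather than NOTCH3 protein; score merges spot fluorescence near 667 nm with spot signal to noise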
Some molecules, each annotated with its measured composite z-score.

molecule: Cc1ccc(C(C)CC(O)C2C=CC3C(=O)N(c4ccccc4)C(=O)C3N2Nc2ccc(C(C)C)cc2)o1 (stereo not drawn)
composite z-score: 0.126
--
molecule: O=C1O[C@@H](c2ccccc2)[C@@H](c2ccccc2)N2[C@@H](c3ccccc3OCCO)[C@]3(C(=O)Nc4ccccc43)[C@@H](C(=O)NC[C@H](O)c3ccccc3)[C@H]12
composite z-score: -0.213
--
molecule: COc1cc(CO)cc(I)c1O[C@H]1C=C(C(=O)NCCO)C[C@@H](N(CC2CCCCC2)C(=O)c2ccc(C(F)(F)F)cc2)[C@@H]1O
composite z-score: -0.0921
--
molecule: C=C(COC)/C(=C/C[C@@H](OC(=O)c1ccncc1)c1ccc(CO)o1)c1cnc2ccccc2c1
composite z-score: 0.412
--
molecule: C[N+](C)(C)CCCC[C@@H]1NC(=O)[C@@H]2C[C@H](C(=O)O)[C@H](c3ccc(O)cc3)N2C1=O
composite z-score: -0.223
--
molecule: C=C(C(=O)CC[C@H](OC(=O)c1cccnc1)c1ccc(CO)o1)C(C)C
composite z-score: 0.0596
--
molecule: COc1cc(CO)cc(I)c1O[C@H]1C=C(C(=O)NCCO)C[C@@H](NCc2ccccc2F)[C@@H]1O
composite z-score: 0.0979
--
molecule: NC(=O)N1C(=O)C2C(C1=O)C1C=C(CCCO)C2C(c2cccs2)N1Cc1cc2c(cc1Br)OCO2 (stereo not drawn)
composite z-score: -0.0328

---

target: Left-right determination factor 2 (Homo sapiens); test: LEFTY2 binders on small-molecule microarrays, primary screen, biochemical, small-molecule microarray, 635 nm fluorescence scan (AID 1110); details: LEFTY2 binding, higher = more signal
Rule: composite z-score under 0.4 gives Not fulfilled, otherwise Fulfilled.

compound: COc1cc2c(cc1OC)CN(C(=O)[C@@H]1[C@H]3C(=O)O[C@H](c4ccccc4)[C@H](c4ccccc4)N3[C@H](c3ccccc3OCCO)[C@@]13C(=O)Nc1ccc(C#CC4(O)CCCCCC4)cc13)CC2
group: Not fulfilled
//
compound: Cc1c(NC(=O)/C(C#N)=C/C=C/c2ccc(N(C)C)cc2)c(=O)n(-c2ccccc2)n1C
group: Fulfilled
//
compound: COCCOC(=O)N1C(=O)[C@@]2(c3cc(C#Cc4ccc(OC)cc4)ccc31)[C@H](C(=O)NC[C@H](O)c1ccccc1)[C@H]1C(=O)O[C@H](c3ccccc3)[C@H](c3ccccc3)N1[C@@H]2c1ccc(O)cc1
group: Fulfilled
//
compound: C=CC[C@@]1(C(=O)O)N=C(c2ccc(OCCCO)cc2)O[C@@H]1c1ccccc1
group: Not fulfilled
//
compound: O=c1cccc(-c2cccc(Cl)c2)o1
group: Not fulfilled
//
compound: C=CC[C@@]12N=C(c3ccc(OCCCO)cc3)O[C@@H]1c1ccccc1N(CCS(=O)(=O)c1ccccc1)C2=O
group: Fulfilled
//
compound: CC(=O)N1Cc2ccccc2C[C@]2(N=C(c3ccc(OCCCO)cc3)O[C@@H]2c2ccccc2)C1=O
group: Not fulfilled
//
compound: C=CC[C@]12N=C(c3ccc(OCCCO)cc3)O[C@H]1c1ccccc1N(C)C2=O
group: Not fulfilled
//
compound: COc1ccc(C#Cc2ccc3c(c2)[C@]2(C(=O)N3)[C@H](C(=O)N3CCc4cc(OC)c(OC)cc4C3)[C@H]3C(=O)O[C@H](c4ccccc4)[C@H](c4ccccc4)N3[C@@H]2c2ccc(O)cc2)cc1
group: Not fulfilled
//
compound: CN(C)C(=O)[C@]1(CCC(=O)OC(C)(C)C)N=C(c2ccc(OCCCO)cc2)O[C@@H]1c1ccccc1
group: Not fulfilled
//
compound: C[C@]12C(=O)N(CCCCCCO)[C@@H]3C(=O)N(c4ccc(Cl)cc4)CC=CC31O[C@@H]1/C=C\CCCOC(=O)C12 (stereo partly drawn)
group: Not fulfilled
//
compound: CCOC(=O)C[C@H]1[C@H](OC(=O)c2ccc(C(=O)c3ccccc3)cc2)[C@@H](NC(=O)c2ccc3ccccc3c2)c2cc(OCCCO)ccc2N1C(=O)c1ccccc1
group: Not fulfilled
//
compound: CC=CC(O)C1C=CC2C(=O)N(c3ccccc3)C(=O)C2N1Nc1ccc([N+](=O)[O-])cc1 (stereo not drawn)
group: Not fulfilled
//
compound: CC(CO)N1C(=O)[C@@H]2C3C(=O)OCCC/C=C\[C@H]3OC23C=CCN(Cn2nnc4ccccc42)C(=O)[C@@H]13 (stereo partly drawn)
group: Not fulfilled
//
compound: O=C1O[C@@H](c2ccccc2)[C@@H](c2ccccc2)N2[C@@H](c3ccc(O)cc3)[C@]3(C(=O)Nc4ccc(C#CCCO)cc43)[C@@H](C(=O)NC[C@H](O)c3ccccc3)[C@H]12
group: Not fulfilled
//
compound: O=C(CS)NCCCCCCNC(=O)[C@H]1C[C@H]2C(=O)N[C@@H](Cc3ccccc3)C(=O)N2[C@H]1c1cccc(OCCO)c1
group: Fulfilled
//
compound: CCCCC(=C=CC[C@@H](O)c1ccc(OCCO)cc1)C[C@@H](O)COCc1ccccc1
group: Not fulfilled
//
compound: CC(C)CNC(=O)[C@@]1(c2ccc([N+](=O)[O-])cc2)CC(=O)N(C2CCCCC2)[C@@H]1c1ccc(CO)cc1I
group: Not fulfilled
//
compound: COc1cc2c(cc1OC)CN(C(=O)[C@H]1[C@@H]3C(=O)O[C@@H](c4ccccc4)[C@@H](c4ccccc4)N3[C@@H](c3ccc(OCCO)cc3)[C@]13C(=O)Nc1ccc(C#CCCO)cc13)CC2
group: Fulfilled
//
compound: O=C1O[C@@H](c2ccccc2)[C@@H](c2ccccc2)N2[C@@H](c3ccccc3OCCO)[C@]3(C(=O)Nc4ccccc43)[C@@H](C(=O)NC[C@H](O)c3ccccc3)[C@H]12
group: Not fulfilled
//
compound: NC(=O)NCC#Cc1ccc2c(c1)[C@]1(C(=O)N2)[C@H](C(=O)Nc2nc3ccccc3s2)[C@H]2C(=O)O[C@H](c3ccccc3)[C@H](c3ccccc3)N2[C@@H]1c1ccc(O)cc1
group: Not fulfilled
//
compound: CCOC(=CC(=O)OC)CC(O)c1cccc(Cl)c1 (stereo not drawn)
group: Not fulfilled
//
compound: O=C(N1CCCCC1)[C@@]1(Cc2ccccc2)COC(c2ccc(OCCCO)cc2)=N1
group: Not fulfilled
//
compound: NC(=O)NCC#Cc1ccc2c(c1)[C@]1(C(=O)N2)[C@H](C(=O)O)[C@H]2C(=O)O[C@H](c3ccccc3)[C@H](c3ccccc3)N2[C@@H]1c1ccccc1OCCO
group: Not fulfilled
//
compound: C[C@H]1ON(c2ccc(C(=O)OC(C)(C)C)cc2)[C@@H](c2ccc(O)cc2)[C@@H]1C(=O)N1C(=O)OC[C@@H]1c1ccccc1
group: Fulfilled
//
compound: COc1ccc(NN2C(C(O)c3ccccn3)C=CC3C(=O)N(C4CCCCC4)C(=O)C32)cc1 (stereo not drawn)
group: Not fulfilled
//
compound: COC(=O)[C@H](Cc1ccccc1)N1CC(/C=C/C2CC2)=C[C@@H]1[C@@H](O)Cc1ccccc1
group: Fulfilled

---

Below, each entry is listed with its recorded z-score.
test: basal RPMI8226 mitochondrial membrane potential changes, profiling panel, cell-based, JC-1 fluorescence, 24 h, 100 nL compound (AID 1169); conditions: RPMI8226 myeloma, JC-1 mitochondrial potential fluorescence, higher = more signal; further: test concentration not given here
assay endpoint: z-score

molecule: C=C(CCCC)C(=O)CC[C@@H](OC(=O)c1ccccc1-c1ccccc1C(=O)O)c1cccc(OCCO)c1
recorded measurement: -0.694

molecule: C=CCN1C(=O)[C@@]2(O[C@@H](CCn3cc([C@H](O)c4ccccc4)nn3)[C@H]([Si](C)(C)c3ccc(OC)cc3)[C@H]2C)c2ccccc21
recorded measurement: -0.967

molecule: C=C[C@@H](C)[C@H](OC(=O)Nc1ccc(SC)cc1)c1ccc(OCCO)cc1
recorded measurement: 0.917

molecule: O=C1NC(=O)C2C1C=CC(C(O)c1ccc3c(c1)OCO3)N2Nc1ccccn1 (configuration not stated)
recorded measurement: 0.115

molecule: COCCOC(=O)N1C(=O)[C@@]2(c3cc(C#CC4(O)CCCCCC4)ccc31)[C@H](c1ccccc1OCCO)N1[C@H](c3ccccc3)[C@H](c3ccccc3)OC(=O)[C@H]1[C@@H]2C(N)=O
recorded measurement: -1.14

molecule: CC[C@H]1C2=C3C(CC[C@H]4C(OCc5ccc(F)cc5C(F)(F)F)OC[C@](C)([C@@H]34)N(C(=O)OC(C)(C)C)C2)C2COC(=O)OCC21 (some centres not stated)
recorded measurement: -0.0899

molecule: COCCOC(=O)N1C(=O)[C@@]2(c3cc(C#CC4(O)CCCCCC4)ccc31)[C@H](C(N)=O)[C@H]1C(=O)O[C@H](c3ccccc3)[C@H](c3ccccc3)N1[C@@H]2c1ccccc1OCCO
recorded measurement: -1.17

// data source = PubChem BioAssay
